species: Rattus norvegicus; experiment: DrugMatrix - Regimen: Daily Repeat; type: toxicity, organism-based, Sprague-Dawley; design: regimen Daily Repeat, gender Male, age 6-8 weeks; details: in vivo, ip, 8 mg/kg, […], tissue Blood, route intraperitoneal, dose level High, time 28 day, vehicle 100 % SALINE
VALUE_TYPE: ABSOLUTE MONOCYTE (cells/µL)
Number only, in cells/µL; omit the unit.

# input ABSOLUTE MONOCYTE lookup needed for GOLD SODIUM THIOMALATE , thanks.
# output 180

====

Listing of recorded NEUTROPHIL by entry.
organism: Rattus norvegicus; experiment: DrugMatrix - Regimen: Daily Repeat; type: toxicity, organism-based, Sprague-Dawley; parameters: regimen Daily Repeat, gender Male, age 6-8 weeks; conditions: in vivo, po, 0 mg/kg, 72 h, tissue Blood, route oral GAVAGE, dose level Control, time 3 day, vehicle 100 % WATER
Numeric answer plus unit only.

# input NEUTROPHIL lookup needed for CC(CCc1ccccc1)NCC(O)c1ccc(O)c(C(N)=O)c1 (stereo not given) [LABETALOL] , thanks.
# output 8.17%

# input Try this molecule too: NC(=O)c1ncn([C@@H]2O[C@H](CO)[C@@H](O)[C@H]2O)n1 [RIBAVIRIN]
# output 7.17%

# input Try this molecule too: CN1CCC[C@H]1c1cccnc1 [NICOTINE]
# output 7%

# input Try this molecule too: NCC1(CC(=O)O)CCCCC1 [GABAPENTIN]
# output 11.67%

# input Try this molecule too: Cn1cnc([N+](=O)[O-])c1Sc1ncnc2nc[nH]c12 [AZATHIOPRINE]
# output 5.83%

====

Listing of recorded GLUCOSE by entry.
species: Rattus norvegicus; assay: DrugMatrix - Regimen: Daily Repeat; type: toxicity, organism-based, Sprague-Dawley; parameters: regimen Daily Repeat, gender Male, age 6-8 weeks; details: in vivo, po, 2000 mg/kg, 72 h, tissue Plasma, route oral GAVAGE, dose level High, time 3 day, vehicle .5 % CMC
Numeric answer plus unit only.

{"MOLECULE": "CC(=O)O[C@]1(C(C)=O)CC[C@H]2[C@@H]3C=C(Cl)C4=CC(=O)CC[C@]4(C)[C@H]3CC[C@@]21C [CHLORMADINONE ACETATE]", "RESULT_VALUE": "149.33 mg/dL"}
{"MOLECULE": "NCC(=O)O [GLYCINE]", "RESULT_VALUE": "157.67 mg/dL"}
{"MOLECULE": "CC(C)[C@H](N)C(=O)OCCOCn1cnc2c(=O)[nH]c(N)nc21 [VALACYCLOVIR]", "RESULT_VALUE": "158.33 mg/dL"}

# input GLUCOSE lookup needed for NCCCC[C@H](N[C@@H](CCc1ccccc1)C(=O)O)C(=O)N1CCC[C@H]1C(=O)O [LISINOPRIL ANHYDROUS] , thanks.
# output 155 mg/dL

====

species: Rattus norvegicus; assay: DrugMatrix - Regimen: Daily Repeat; type: toxicity, organism-based, Sprague-Dawley; design: regimen Daily Repeat, gender Male, age 6-8 weeks; details: in vivo, po, 1500 mg/kg, 72 h, tissue Plasma, route oral GAVAGE, dose level High, time 3 day, vehicle .5 % CMC
VALUE_TYPE: ALBUMIN (G/DL)
Number only, in G/DL; omit the unit.

Previously resolved entries follow.
{"MOLECULE": "CCOC(=O)[C@H](CCc1ccccc1)N[C@@H](C)C(=O)N1[C@H](C(=O)O)C[C@@H]2CCC[C@@H]21", "READOUT_UNIT": "G/DL", "RESULT_VALUE": 4.1}
{"MOLECULE": "NS(=O)(=O)c1cc2c(cc1Cl)NCNS2(=O)=O [HYDROCHLOROTHIAZIDE]", "READOUT_UNIT": "G/DL", "RESULT_VALUE": 4.17}
{"MOLECULE": "O=C1CCc2cc(OCCCCc3nnnn3C3CCCCC3)ccc2N1 [CILOSTAZOL]", "READOUT_UNIT": "G/DL", "RESULT_VALUE": 3.77}

Moving on to the next molecule.
# input ALBUMIN lookup needed for COC(=O)c1ccc(O)cc1 [METHYLPARABEN] , thanks.
# output 4.03

====

organism: Rattus norvegicus; assay: DrugMatrix - Regimen: Daily Repeat; type: toxicity, organism-based, Sprague-Dawley; set-up: regimen Daily Repeat, gender Male, age 6-8 weeks; details: in vivo, po, 0 mg/kg, 120 h, tissue Blood, route oral GAVAGE, dose level Control, time 5 day, […]
VALUE_TYPE: MEAN CORPUSCULAR VOLUME

Previously resolved entries follow.
{"MOLECULE": "CC(=O)[C@H]1CC[C@H]2[C@@H]3CCC4=CC(=O)CC[C@]4(C)[C@H]3CC[C@]12C", "RESULT_VALUE": "64.93 fL"}
{"MOLECULE": "Oc1c(Cl)cc(Cl)cc1Sc1cc(Cl)cc(Cl)c1O", "RESULT_VALUE": "63.3 fL"}
{"MOLECULE": "c1ccc2[nH]c(-c3cscn3)nc2c1", "RESULT_VALUE": "61.03 fL"}
{"MOLECULE": "O=[N+]([O-])c1cc([As](=O)(O)O)ccc1O", "RESULT_VALUE": "64.68 fL"}

# input MEAN CORPUSCULAR VOLUME lookup needed for Cn1cnc([N+](=O)[O-])c1Sc1ncnc2nc[nH]c12 , thanks.
# output 61.33 fL

# input Try this molecule too: CCCC[C@@H](CC)COC(=O)c1ccccc1C(=O)OC[C@@H](CC)CCCC [BIS(2-ETHYLHEXYL)PHTHALATE]
# output 61.03 fL

====

Listing of recorded MONOCYTE by entry.
species: Rattus norvegicus; experiment: DrugMatrix - Regimen: Daily Repeat; type: toxicity, organism-based, Sprague-Dawley; set-up: regimen Daily Repeat, gender Male, age 6-8 weeks; conditions: in vivo, po, 0 mg/kg, 72 h, tissue Blood, route oral GAVAGE, dose level Control, time 3 day, vehicle 100 % WATER
Number only, in %; omit the unit.

Previously resolved entries follow.
{"INPUT_SMILES": "O=C1NC(=O)C(c2ccccc2)(c2ccccc2)N1", "READOUT_UNIT": "%", "MONOCYTE": 0.5}
{"INPUT_SMILES": "C[C@]12Cc3c[nH]nc3C[C@@H]1CC[C@@H]1[C@@H]2CC[C@@]2(C)[C@H]1CC[C@]2(C)O", "READOUT_UNIT": "%", "MONOCYTE": 0.5}

Moving on to the next compound.
# input MONOCYTE lookup needed for Nc1ccc(S(=O)(=O)Nc2ccnn2-c2ccccc2)cc1 , thanks.
# output 1.17

====

Listing of recorded CREATINE PHOSPHOKINASE by entry.
species on record: Rattus norvegicus; assay: DrugMatrix - Regimen: Daily Repeat; assay type: toxicity, organism-based, Sprague-Dawley; parameters: regimen Daily Repeat, gender Male, age 6-8 weeks; settings: in vivo, po, 0 mg/kg, 120 h, tissue Plasma, route oral GAVAGE, dose level Control, time 5 day, vehicle .5 % CMC
Number only, in u/L; omit the unit.

# input CREATINE PHOSPHOKINASE lookup needed for Cc1c(-c2ccccc2)oc2c(C(=O)OCCN3CCCCC3)cccc2c1=O [FLAVOXATE] , thanks.
# output 227.67

# input Try this compound too: COc1c(C)c2c(c(O)c1C/C=C(\C)CCC(=O)OCCN1CCOCC1)C(=O)OC2 [MYCOPHENOLATE MOFETIL]
# output 628.17

# input Try this compound too: CC(/C=C1\SC(=S)N(CC(=O)O)C1=O)=C\c1ccccc1
# output 628.17

# input Try this compound too: COC(=O)c1ccc(O)cc1
# output 239.5

# input Try this compound too: O=C1CCc2cc(OCCCCc3nnnn3C3CCCCC3)ccc2N1
# output 148.33

# input Try this compound too: CCC[C@@H]1C[C@@H](C(=O)N[C@@H]([C@H]2O[C@H](SC)[C@H](O)[C@@H](O)[C@H]2O)[C@@H](C)O)N(C)C1
# output 273.5

# input Try this compound too: CC1(C)[C@H]2CC[C@]1(C)C(=O)C2 [(-)-CAMPHOR]
# output 231.83

# input Try this compound too: CN1CCC[C@@H]1CCO[C@](C)(c1ccccc1)c1ccc(Cl)cc1
# output 628.17

====

species: Rattus norvegicus; test: DrugMatrix - Regimen: Daily Repeat; type: toxicity, organism-based, Sprague-Dawley; design: regimen Daily Repeat, gender Male, age 6-8 weeks; settings: in vivo, ip, 8 mg/kg, 120 h, tissue Blood, route intraperitoneal, dose level High, time 5 day, vehicle 100 % SALINE
VALUE_TYPE: ABSOLUTE BASOPHIL (cells/µL)
Number only, in cells/µL; omit the unit.

# input ABSOLUTE BASOPHIL lookup needed for GOLD SODIUM THIOMALATE , thanks.
# output 130
